Provide the recorded inhibition at 20 µM for the entries that follow.
- studySystem: FGFR1 kinase (Homo sapiens)
- assayRemarks: cell-free Caliper mobility shift kinase assay, inhibition at […]
- Assay type: biochemical
State just the number; it will be interpreted in %.

Problem: Please look at this molecule and report its inhibition at 20 µM: "O=C1/C(=C/c2ccc(O)c(O)c2)COC/C1=C\c1ccc(O)c(O)c1"
Result: 92.8

Problem: Give recorded inhibition at 20 µM. "O=C1/C(=C/c2ccc(N3CCOCC3)cc2)COC/C1=C\c1ccc(O)c(O)c1"
Result: 71.4

Problem: State, in one line, measured inhibition at 20 µM of "O=C1/C(=C/c2ccc(O)cc2)COC/C1=C\c1ccc(O)c(O)c1"
Result: 78.5

Problem: Kindly indicate its recorded inhibition at 20 µM. Item: "COc1ccc(/C=C2\COC/C(=C\c3ccc(O)c(O)c3)C2=O)cc1O"
Result: 53.5

Problem: Identify measured inhibition at 20 µM associated with "COc1cc(/C=C2\COC/C(=C\c3ccc(O)c(O)c3)C2=O)ccc1O"
Result: 55.7

====

Give inhibition at 20 µM for every item shown.
- studySystem: FGFR1 kinase (Homo sapiens, UniProt P11362)
- Sequence (P11362 22-822): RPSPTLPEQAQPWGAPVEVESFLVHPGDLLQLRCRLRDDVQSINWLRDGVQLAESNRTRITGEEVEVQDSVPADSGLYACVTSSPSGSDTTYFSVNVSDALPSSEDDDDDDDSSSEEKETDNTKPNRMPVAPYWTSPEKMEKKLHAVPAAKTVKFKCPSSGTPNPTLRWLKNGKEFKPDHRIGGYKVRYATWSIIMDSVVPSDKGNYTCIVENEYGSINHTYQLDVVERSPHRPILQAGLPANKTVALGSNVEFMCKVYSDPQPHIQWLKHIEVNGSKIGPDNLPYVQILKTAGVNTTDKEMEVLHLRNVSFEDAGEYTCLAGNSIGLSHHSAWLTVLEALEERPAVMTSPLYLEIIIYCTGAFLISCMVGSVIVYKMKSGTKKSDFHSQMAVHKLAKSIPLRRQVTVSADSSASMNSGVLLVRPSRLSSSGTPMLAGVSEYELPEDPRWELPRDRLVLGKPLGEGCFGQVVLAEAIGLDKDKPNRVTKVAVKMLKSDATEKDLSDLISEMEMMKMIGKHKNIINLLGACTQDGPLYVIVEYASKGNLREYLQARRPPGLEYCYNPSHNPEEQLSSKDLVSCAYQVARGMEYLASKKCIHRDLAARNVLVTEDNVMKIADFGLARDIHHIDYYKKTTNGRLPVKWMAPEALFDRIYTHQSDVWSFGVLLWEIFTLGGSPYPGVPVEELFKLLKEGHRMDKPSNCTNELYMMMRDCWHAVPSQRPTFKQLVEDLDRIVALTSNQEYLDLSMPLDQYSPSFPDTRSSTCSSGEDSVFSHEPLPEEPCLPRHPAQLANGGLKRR
- assayRemarks: cell-free Caliper mobility shift kinase assay, inhibition at […]
- Assay type: biochemical
Number in %, nothing else.

Problem: Supply recorded inhibition at 20 µM for "COc1ccccc1/C=C1\COC/C(=C\c2ccc(O)c(O)c2)C1=O" here.
Result: 54.2

Problem: Name the recorded inhibition at 20 µM of the molecule listed here: "COc1ccc(OC)c(/C=C2\COC/C(=C\c3ccc(O)c(O)c3)C2=O)c1"
Result: 67.6

Problem: Please report inhibition at 20 µM for the following molecule: "O=C1/C(=C/c2cccc(O)c2)COC/C1=C\c1ccc(O)c(O)c1"
Result: 73.7
